Tested on: Beta vulgaris
Assay: Herbicidal activity, postemergence test (Example 66)
Format: in vivo
Settings: post; 1000 g/ha; assessed visually twenty days after spraying
measured endpoint: herbicidal effects on a 0-9 scale, BEAVA
Numbers only.

>  <compound>
C[C@H](NC(=O)c1nc(-c2ccccc2)ns1)c1ccccc1

>  <herbicidal effects on a 0-9 scale, BEAVA>
5

$$$$

Quick request: herbicidal effects on a 0-9 scale, BEAVA for each listed item, please.
1. CC(NC(=O)c1nc(-c2cccc(C(F)(F)F)c2)ns1)c1cccs1 (racemic)
2. CCNC(=O)c1nc(-c2ccc(F)cc2)ns1

Reply:
8
7

Hey, quick one: what's herbicidal effects on a 0-9 scale, BEAVA for each of these?
1. CC(C)c1nsc(C(=O)N[C@@H](C)c2ccccc2)n1
2. C[C@H](NC(=O)c1nsc(-c2ccc(Cl)cc2)n1)c1ccccc1

Reply:
1. 8
2. 8
